Hello, the source for this data is patent US20230357429A1, in case you need it.

Listed binders paired with reported pEC50
target: T1, Peptide-38 (cysteine pairing not given here; also: biotinylated, site not given here); experiment: ELISA, Fab on captured biotin-peptide
T1 peptide: VDFCSIYHWPVCYV
Where no end group is shown, it is not given here.
For clarity, pEC50 is expressed as the negative log10 of concentration in mol/L.

{"BINDER": "TBD-22 (HC D109A) (Fab, V domains shown, Fab; also called HC D109A mutant) VH: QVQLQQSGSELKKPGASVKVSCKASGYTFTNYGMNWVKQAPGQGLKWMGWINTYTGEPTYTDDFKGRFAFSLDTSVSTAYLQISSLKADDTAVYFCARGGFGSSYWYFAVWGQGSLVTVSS VL: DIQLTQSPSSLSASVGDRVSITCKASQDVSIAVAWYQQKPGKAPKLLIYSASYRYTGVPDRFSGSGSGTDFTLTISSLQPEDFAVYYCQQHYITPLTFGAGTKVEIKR", "pEC50": 8.70}
{"BINDER": "TBD-6 (LC I93A) (Fab, V domains shown, Fab; also called LC I93A mutant) VH: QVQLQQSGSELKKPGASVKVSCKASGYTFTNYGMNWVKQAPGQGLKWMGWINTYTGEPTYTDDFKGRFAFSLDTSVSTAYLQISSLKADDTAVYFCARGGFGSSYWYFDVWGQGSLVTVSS VL: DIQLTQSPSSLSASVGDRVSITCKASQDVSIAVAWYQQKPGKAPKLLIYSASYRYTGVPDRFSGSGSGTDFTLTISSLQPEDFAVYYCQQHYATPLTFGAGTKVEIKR", "pEC50": 8.01}

Would you kindly look at the next entry?
Which pEC50 reading was recorded for the binder TBD-21 (HC F108A) (Fab, V domains shown, Fab; also called HC F108A mutant) VH: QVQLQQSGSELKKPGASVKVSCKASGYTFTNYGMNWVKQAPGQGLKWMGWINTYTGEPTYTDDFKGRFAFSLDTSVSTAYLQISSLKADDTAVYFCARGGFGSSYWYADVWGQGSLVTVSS VL: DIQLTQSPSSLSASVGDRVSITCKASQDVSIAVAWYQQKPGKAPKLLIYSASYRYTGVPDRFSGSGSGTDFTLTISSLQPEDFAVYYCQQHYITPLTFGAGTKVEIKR ?
7.58
